Target: Pcs60 (Saccharomyces cerevisiae, UniProt P38137)
Sequence (P38137 whole entry): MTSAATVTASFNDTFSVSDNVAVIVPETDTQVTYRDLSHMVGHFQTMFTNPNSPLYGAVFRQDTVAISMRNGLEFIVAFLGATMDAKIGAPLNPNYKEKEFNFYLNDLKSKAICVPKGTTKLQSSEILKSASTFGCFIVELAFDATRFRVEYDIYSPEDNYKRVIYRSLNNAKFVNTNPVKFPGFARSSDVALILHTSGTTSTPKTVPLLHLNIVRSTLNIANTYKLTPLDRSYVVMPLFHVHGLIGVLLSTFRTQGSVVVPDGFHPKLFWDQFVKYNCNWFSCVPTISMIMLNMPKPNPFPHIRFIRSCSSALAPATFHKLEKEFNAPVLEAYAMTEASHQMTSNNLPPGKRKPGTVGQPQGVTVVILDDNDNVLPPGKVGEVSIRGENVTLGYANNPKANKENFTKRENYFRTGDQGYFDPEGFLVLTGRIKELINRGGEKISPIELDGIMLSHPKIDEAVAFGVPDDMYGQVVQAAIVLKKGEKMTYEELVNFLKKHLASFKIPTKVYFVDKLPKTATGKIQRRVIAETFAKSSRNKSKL
Assay type: binding, S. cerevisiae
Conditions: T=38 °C; fitted ∆Cp = 6.7 kcal/molK; read-out: Kd (isothermal analysis, fitted ∆Cp)
quantity.name: pKd
Lab note — pKd values are minus log10 of concentrations in M.

Given Nc1ncnc2c1ncn2[C@@H]1O[C@H](CO[P@](=O)(O)O[P@](=O)(O)O[P@@](=O)(O)S)[C@@H](O)[C@H]1O [γS-ATP] , state its recorded pKd.
4.81

* * *

Target: Pcs60 (Saccharomyces cerevisiae)
Assay type: binding, S. cerevisiae
Conditions: heating rate 1 °C/min; ∆Cp default 0 kcal/mol; Tsel 40 °C; read-out: Kd,Tsel
quantity.name: Kd (µM)
Only the number, expressed in µM, is required.

Given Nc1ncnc2c1ncn2[C@@H]1O[C@H](CO[P@](=O)(O)O[P@](=O)(O)O[P@@](=O)(O)S)[C@@H](O)[C@H]1O , state its recorded Kd.
18

* * *

Target: Pcs60 (Saccharomyces cerevisiae, UniProt P38137)
Format: binding, S. cerevisiae
Conditions: T=46 °C; fitted ∆Cp = 6.7 kcal/molK; read-out: Kd (isothermal analysis, fitted ∆Cp)
quantity.name: Kd (µM)
Only the number, expressed in µM, is required.

Given Nc1ncnc2c1ncn2[C@@H]1O[C@H](CO[P@](=O)(O)O[P@](=O)(O)O[P@@](=O)(O)S)[C@@H](O)[C@H]1O [γS-ATP] , state its recorded Kd.
41.1

* * *

Biological target: wild-type Pcs60 (Saccharomyces cerevisiae, UniProt P38137)
Sequence (P38137 whole entry): as above
Experiment: biochemical
Assay type: binding, S. cerevisiae
Conditions: read-out: Kd,app Model 1 (melting temperature analysis)
quantity.name: Kd (µM)
Only the number, expressed in µM, is required.

Given Nc1ncnc2c1ncn2[C@@H]1O[C@H](CO[P@](=O)(O)O[P@](=O)(O)O[P@@](=O)(O)S)[C@@H](O)[C@H]1O , state its recorded Kd.
195

* * *

Target: UniProtKB P38137
Test: biochemical
Assay type: binding, S. cerevisiae
Settings: T=36 °C, ∆Cp = 0, read-out: Kd (isothermal analysis)
quantity.name: pKd
Lab note — pKd values are minus log10 of concentrations in M.

Item Nc1ncnc2c1ncn2[C@@H]1O[C@H](CO[P@](=O)(O)O[P@](=O)(O)O[P@@](=O)(O)S)[C@@H](O)[C@H]1O with UniProtKB P38137 - pKd?
4.71

* * *

Biological target: Pcs60 (Saccharomyces cerevisiae, UniProt P38137)
Assay type: binding, S. cerevisiae
Conditions: read-out: Kd (MST); Tref 21 °C; 1:1 model
Procedure: MST curves for Pcs60/ γ S-ATP were acquired with a Nanotemper Monolith NT.LabelFree (Nanotemper) using the MO.Control v1.6 acquisition software and Monolith NT.LabelFree capillaries. The same protein concentration and buffer conditions as for the nDSF experiments were used (9.9 μM). […] The data was exported as xlsx and analyzed and plotted with a self-written Python script. […] For each curve Fnorm was calculated as the ratio between the mean values in the “hot” and “cold” region. […]
quantity.name: Kd (µM)
Only the number, expressed in µM, is required.

Given Nc1ncnc2c1ncn2[C@@H]1O[C@H](CO[P@](=O)(O)O[P@](=O)(O)O[P@@](=O)(O)S)[C@@H](O)[C@H]1O [γS-ATP] , state its recorded Kd.
16

* * *

Target: wild-type Pcs60 (Saccharomyces cerevisiae, UniProt P38137)
Experiment: biochemical
Format: binding, S. cerevisiae
Details: T=40 °C, ∆Cp = 0, read-out: Kd (isothermal analysis)
quantity.name: pKd
Lab note — pKd values are minus log10 of concentrations in M.

Item Nc1ncnc2c1ncn2[C@@H]1O[C@H](CO[P@](=O)(O)O[P@](=O)(O)O[P@@](=O)(O)S)[C@@H](O)[C@H]1O [γS-ATP] with wild-type Pcs60 (Saccharomyces cerevisiae, UniProt P38137) - pKd?
4.68

Values compiled from paper PMC8099913.
